System: 485176-168-R4-J1-PDC complex spheroid growth
assay.text: Anticancer human tumor 485176-168-R4-J1-PDC patient-derived pancreatic adenocarcinoma cell line growth inhibition [RAS]
test.parameters: second compound 0.000949 µM; first compound 1 µM; stronger effect = lower value
quantity.measured: viability, T/C (%)
Express your answer in %, writing the number without its unit.

[[record]]
compound = "CCC(CC)c1cc(NC2CCC(N)C2)n2nccc2n1 (configuration not stated) + CCn1c(-c2cccnc2C(C)OC)c2c3cc(ccc31)N1CCOC(CC(NC(=O)C(C(C)C)N(C)C(=O)C3(F)CCN(C(=O)C#CC(C)(C)N(C)C)CC3)C(=O)N3CCCC(N3)C(=O)OCC(C)(C)C2)C1"
test_system = "485176-168-R4-J1-PDC complex spheroid growth"
reported_value = 64.1


Would you kindly look at the next entry?
viability, T/C reported for this compound Nc1ccn(C2OC(CO)C(O)C2(F)F)c(=O)n1 (configuration not stated) + CCn1c(-c2cc(N3CCN(C)CC3)cnc2C(C)OC)c2c3cc(ccc31)-c1csc(n1)CC(NC(=O)C1CC1C)C(=O)N1CCCC(N1)C(=O)OCC(C)(C)C2 : 11.5

====

Reported IC50 is given for each of the following molecules.
System: 485176-168-R4-J1-PDC complex spheroid growth
assay.text: Anticancer human tumor 485176-168-R4-J1-PDC cell line growth inhibition [RAS];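 note: spheroids exposed to compounds for seven days before readout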
test.parameters: curve of compound

Here is how some molecules turned out for IC50.
[[record]]
molecule = "CCc1c2c(nc3ccc(O)cc13)-c1cc3c(c(=O)n1C2)COC(=O)[C@]3(O)CC"
test_system = "485176-168-R4-J1-PDC complex spheroid growth"
quantity_measured = "IC50"
reported_value = "17.9 nM [middle of 4 runs]"

[[record]]
molecule = "C=CC(=O)Nc1cc(Nc2nccc(-c3cn(C)c4ccccc34)n2)c(OC)cc1N(C)CCN(C)C"
test_system = "485176-168-R4-J1-PDC complex spheroid growth"
quantity_measured = "IC50"
reported_value = "> 1 µM"


Pending molecule:
Briefly, IC50 measured for NC1c2ccccc2OC12CCN(c1cnc3c(N4CCCc5ncccc54)n[nH]c3n1)CC2 (stereo not given) : > 10 µM

====

Tested on: 485176-168-R4-J1-PDC complex spheroid growth
assay.text: Anticancer human tumor 485176-168-R4-J1-PDC cell line growth inhibition [RAS];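 note: spheroids exposed to compounds for seven days before readout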;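 for viability, T/C: luminescence viability expressed relative to DMSO vehicle wells set as 100%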
test.parameters: second compound 1 µM; first compound 1 µM; stronger effect = lower value
quantity.measured: viability, T/C (%)
Provide the reading as a plain figure in %.

Recorded result, C[C@@H](NC(=O)c1ncnc(N)c1Cl)c1ncc(C(=O)Nc2cc(C(F)(F)F)c(Cl)cn2)s1 + C#Cc1c(F)ccc2cc(O)cc(-c3ncc4c(N5CC6CCC(C5)N6)nc(OCC56CCCN5CC(F)C6)nc4c3F)c12 , viability, T/C: 75.3

The compound identified as CC1(O)CCCC1n1c(=O)c(C(F)F)cc2cnc(NC3CCN(S(C)(=O)=O)CC3)nc21 (stereo unspecified) + C=CC(=O)N1CCN(c2nc(OCC3CCCN3C)nc3c(F)c(-c4nc(N)cc(C)c4C(F)(F)F)c(Cl)cc23)C(C)C1 registered its viability, T/C at 49.1

====

The reader will find reported IC50 values listed item by item below.
Tested on: 485176-168-R4-J1-PDC complex spheroid growth
assay.text: Anticancer human tumor 485176-168-R4-J1-PDC cell line growth inhibition [RAS];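 note: spheroids exposed to compounds for seven days before readout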
test.parameters: curve of first compound; second compound 0.3 µM
Write your answer as a measured quantity: the number, then the unit.

[[record]]
molecule = "CC(C)NCC(C(=O)N1CCN(c2ncnc3c2C(C)CC3O)CC1)c1ccc(Cl)cc1 (configuration not stated) + CCn1c(-c2cccnc2C(C)OC)c2c3cc(ccc31)N1CCOC(CC(NC(=O)C(C(C)C)N(C)C(=O)C3(F)CCN(C(=O)C#CC(C)(C)N(C)C)CC3)C(=O)N3CCCC(N3)C(=O)OCC(C)(C)C2)C1"
reported_value = "510 nM"


As a next step, examine the molecule that follows.
Notebook: CC1(C)CCC(Nc2ncc(C(F)(F)F)c(-c3c[nH]c4c(P(C)(C)=O)c(C#N)ccc34)n2)CN1 (configuration not stated) + CCn1c(-c2cccnc2C(C)OC)c2c3cc(ccc31)N1CCOC(CC(NC(=O)C(C(C)C)N(C)C(=O)C3(F)CCN(C(=O)C#CC(C)(C)N(C)C)CC3)C(=O)N3CCCC(N3)C(=O)OCC(C)(C)C2)C1 , IC50 read as 13.2 nM

====

System: 485176-168-R4-J1-PDC complex spheroid growth
assay.text: Anticancer human tumor 485176-168-R4-J1-PDC cell line growth inhibition [RAS];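 note: spheroids exposed to compounds for seven days before readout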;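 for viability, T/C: luminescence viability expressed relative to DMSO vehicle wells set as 100%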
test.parameters: second compound 0.00316 µM; first compound 0.1 µM; stronger effect = lower value
quantity.measured: viability, T/C (%)
Lab book: enter the figure in %, no units written.

Consider the reported viability, T/C for these compounds:
[[record]]
compound = "CC(=O)OC12COC1CC(O)C1(C)C(=O)C(O)C3=C(C)C(OC(=O)C(O)C(NC(=O)OC(C)(C)C)c4ccccc4)CC(O)(C(OC(=O)c4ccccc4)C21)C3(C)C (configuration not stated) + C=CC(=O)N1CCN(c2nc(OCC3CCCN3C)nc3c(F)c(-c4nc(N)cc(C)c4C(F)(F)F)c(Cl)cc23)C(C)C1"
reported_value = 9.9

[[record]]
compound = "Cc1nc(N2CCC3(CC2)COC(C)C3N)c(CO)nc1Sc1ccnc(N)c1Cl (configuration not stated) + C=CC(=O)N1CCN(c2nc(OCC3CCCN3C)nc3c(F)c(-c4nc(N)cc(C)c4C(F)(F)F)c(Cl)cc23)C(C)C1"
reported_value = 91.5

[[record]]
compound = "Nc1ccn(C2OC(CO)C(O)C2(F)F)c(=O)n1 (configuration not stated) + C=CC(=O)N1CCN(c2nc(OCC3CCCN3C)nc3c(F)c(-c4nc(N)cc(C)c4C(F)(F)F)c(Cl)cc23)C(C)C1"
reported_value = 7.74

[[record]]
compound = "O=C(c1ccc(F)c(F)c1Nc1ccc(I)cc1F)N1CC(O)([C@@H]2CCCCN2)C1 + C=CC(=O)N1CCN(c2nc(OCC3CCCN3C)nc3c(F)c(-c4nc(N)cc(C)c4C(F)(F)F)c(Cl)cc23)C(C)C1"
reported_value = 61.1

[[record]]
compound = "CCC(CC)c1cc(NC2CCC(N)C2)n2nccc2n1 (configuration not stated) + C=CC(=O)N1CCN(c2nc(OCC3CCCN3C)nc3c(F)c(-c4nc(N)cc(C)c4C(F)(F)F)c(Cl)cc23)C(C)C1"
reported_value = 101


For record C[C@@H](NC(=O)c1ncnc(N)c1Cl)c1ncc(C(=O)Nc2cc(C(F)(F)F)c(Cl)cn2)s1 + C=CC(=O)N1CCN(c2nc(OCC3CCCN3C)nc3c(F)c(-c4nc(N)cc(C)c4C(F)(F)F)c(Cl)cc23)C(C)C1 the listed viability, T/C is 104

The recorded viability, T/C for C=CC(=O)Nc1cc(Nc2nccc(-c3cn(C)c4ccccc34)n2)c(OC)cc1N(C)CCN(C)C + C=CC(=O)N1CCN(c2nc(OCC3CCCN3C)nc3c(F)c(-c4nc(N)cc(C)c4C(F)(F)F)c(Cl)cc23)C(C)C1 is 100

====

Entries and their viability, T/C
Test system: 485176-168-R4-J1-PDC complex spheroid growth
assay.text: Anticancer human tumor 485176-168-R4-J1-PDC cell line growth inhibition [RAS];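 note: spheroids exposed to compounds for seven days before readout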;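 for viability, T/C: luminescence viability expressed relative to DMSO vehicle wells set as 100%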
test.parameters: second compound 1 µM; first compound 0.01 µM; stronger effect = lower value
Give the quantity in %, number only.

Worked cases, answers included:
[[record]]
compound = "CC(C)n1nc(-c2ccc3oc(N)nc3c2)c2c(N)ncnc21 + C=CC(=O)N1CCN(c2nc(OCC3CCCN3C)nc3c(F)c(-c4nc(N)cc(C)c4C(F)(F)F)c(Cl)cc23)C(C)C1"
quantity_measured = "viability, T/C"
unit_abbrev = "%"
reported_value = 72

[[record]]
compound = "C=CC(=O)N1CCN(c2nc(OCC3CCCN3C)nc3c(F)c(-c4nc(N)cc(C)c4C(F)(F)F)c(Cl)cc23)C(C)C1 (stereo not drawn) + C#Cc1c(F)ccc2cc(O)cc(-c3ncc4c(N5CC6CCC(C5)N6)nc(OCC56CCCN5CC(F)C6)nc4c3F)c12"
quantity_measured = "viability, T/C"
unit_abbrev = "%"
reported_value = 83.1


Per the record, CCN1CCN(Cc2ccc(Nc3ncc(F)c(-c4cc(F)c5nc(C)n(C(C)C)c5c4)n3)nc2)CC1 + C=CC(=O)N1CCN(c2nc(OCC3CCCN3C)nc3c(F)c(-c4nc(N)cc(C)c4C(F)(F)F)c(Cl)cc23)C(C)C1 has viability, T/C of 92.6

====

Test system: 485176-168-R4-J1-PDC complex spheroid growth
assay.text: Anticancer human tumor 485176-168-R4-J1-PDC cell line growth inhibition [RAS];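 note: spheroids exposed to compounds for seven days before readout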
test.parameters: curve of first compound; second compound 0.316 µM
pIC50: −log10 of the molar value.
quantity.measured: pIC50

// known answers, use as guide
[[record]]
molecule = "NC1c2ccccc2OC12CCN(c1cnc3c(N4CCCc5ncccc54)n[nH]c3n1)CC2 (stereo not given) + C=CC(=O)N1CCN(c2nc(OCC3CCCN3C)nc3c(F)c(-c4nc(N)cc(C)c4C(F)(F)F)c(Cl)cc23)C(C)C1"
reported_value = "< 5.00"

[[record]]
molecule = "CC1(C)CCC(Nc2ncc(C(F)(F)F)c(-c3c[nH]c4c(P(C)(C)=O)c(C#N)ccc34)n2)CN1 (stereo not given) + C#Cc1c(F)ccc2cc(O)cc(-c3ncc4c(N5CC6CCC(C5)N6)nc(OCC56CCCN5CC(F)C6)nc4c3F)c12"
reported_value = "< 6.52"

[[record]]
molecule = "C=CC(=O)Nc1cc(Nc2nccc(-c3cn(C)c4ccccc34)n2)c(OC)cc1N(C)CCN(C)C + C#Cc1c(F)ccc2cc(O)cc(-c3ncc4c(N5CC6CCC(C5)N6)nc(OCC56CCCN5CC(F)C6)nc4c3F)c12"
reported_value = "< 6.00"

[[record]]
molecule = "CC(Nc1ccc2c(c1)OCCn1cc(N3C(=O)OCC3C(F)F)nc1-2)C(N)=O (stereo not given) + C=CC(=O)N1CCN(c2nc(OCC3CCCN3C)nc3c(F)c(-c4nc(N)cc(C)c4C(F)(F)F)c(Cl)cc23)C(C)C1"
reported_value = "< 5.00"

[[record]]
molecule = "C[C@@H](NC(=O)c1ncnc(N)c1Cl)c1ncc(C(=O)Nc2cc(C(F)(F)F)c(Cl)cn2)s1 + C#Cc1c(F)ccc2cc(O)cc(-c3ncc4c(N5CC6CCC(C5)N6)nc(OCC56CCCN5CC(F)C6)nc4c3F)c12"
reported_value = "< 5.00"


Record C=CC(=O)Nc1cc(Nc2nccc(-c3cn(C)c4ccccc34)n2)c(OC)cc1N(C)CCN(C)C + C=CC(=O)N1CCN(c2nc(OCC3CCCN3C)nc3c(F)c(-c4nc(N)cc(C)c4C(F)(F)F)c(Cl)cc23)C(C)C1 has 485176-168-R4-J1-PDC complex spheroid growth pIC50 equal to < 6.00

Tested on 485176-168-R4-J1-PDC complex spheroid growth, the item CC(C)n1nc(-c2ccc3oc(N)nc3c2)c2c(N)ncnc21 + C#Cc1c(F)ccc2cc(O)cc(-c3ncc4c(N5CC6CCC(C5)N6)nc(OCC56CCCN5CC(F)C6)nc4c3F)c12 showed pIC50 equal to 7.46

With 485176-168-R4-J1-PDC complex spheroid growth as the test system, C=CC(=O)N1CCN(c2nc(OCC3CCCN3C)nc3c(F)c(-c4nc(N)cc(C)c4C(F)(F)F)c(Cl)cc23)C(C)C1 (stereo not given) + C#Cc1c(F)ccc2cc(O)cc(-c3ncc4c(N5CC6CCC(C5)N6)nc(OCC56CCCN5CC(F)C6)nc4c3F)c12 showed pIC50 of < 6.00

Result for CCc1c2c(nc3ccc(O)cc13)-c1cc3c(c(=O)n1C2)COC(=O)[C@]3(O)CC + C#Cc1c(F)ccc2cc(O)cc(-c3ncc4c(N5CC6CCC(C5)N6)nc(OCC56CCCN5CC(F)C6)nc4c3F)c12 , tested on 485176-168-R4-J1-PDC complex spheroid growth, pIC50: 7.79

// returns pIC50 for CCC(CC)c1cc(NC2CCC(N)C2)n2nccc2n1 (stereo not given) + C#Cc1c(F)ccc2cc(O)cc(-c3ncc4c(N5CC6CCC(C5)N6)nc(OCC56CCCN5CC(F)C6)nc4c3F)c12 with 485176-168-R4-J1-PDC complex spheroid growth; value = 5.79

The reported 485176-168-R4-J1-PDC complex spheroid growth pIC50 of CC1(C)CCC(Nc2ncc(C(F)(F)F)c(-c3c[nH]c4c(P(C)(C)=O)c(C#N)ccc34)n2)CN1 (stereo not given) + C=CC(=O)N1CCN(c2nc(OCC3CCCN3C)nc3c(F)c(-c4nc(N)cc(C)c4C(F)(F)F)c(Cl)cc23)C(C)C1 is 7.37
